test: HTB85 osteosarcoma cell growth inhibition, synergistic combos for chromothripsis tumors, BGB or cisplatin IC20 combos (AID 1671453);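 further: cells exposed for 96 hours before readout; 0% = vehicle DMSO and 100% = high DMSO killing control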
assay-conditions: HTB85 osteosarcoma cells, drug combinations, measured here: with BGB IC20, at 0.5 µM, stronger effect = higher value
recorded-endpoint: inhibition (%)

>>> endpoint_value("CCN(CC)CCCC(C)Nc1c2ccc(Cl)cc2nc2ccc(OC)cc12 (centres undefined)")
-27.3
>>> endpoint_value("CCn1cc(C(=O)O)c(=O)c2cc(F)c(N3CCNCC3)cc21")
-33.2
>>> endpoint_value("O=C(O)CCCc1ccccc1")
-24.4
>>> endpoint_value("O=c1[nH]cc(F)c(=O)[nH]1")
-36.1

---

test: fluorescence interference in NS3h assay format, artefact control for HCV NS3 helicase inhibitor project, biochemical, NIH Clinical Collection (AID 743272);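 further: HCV NS3 helicase with a Cy5 labelled single stranded DNA probe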
assay-conditions: fluorescence interference counterscreen, stronger effect = lower value
recorded-endpoint: fluorescence ratio

>>> endpoint_value("CN(C)CCCN1c2ccccc2CCc2ccc(Cl)cc21")
1
>>> endpoint_value("COc1c(N2CCNC(C)C2)c(F)cc2c(=O)c(C(=O)O)cn(C3CC3)c12 (stereo unspecified)")
1.01
>>> endpoint_value("O=C(c1ccccc1)c1ccc2n1CCC2C(=O)O (stereo unspecified)")
0.99
>>> endpoint_value("O=C1NC(=O)C(c2ccccc2)(c2ccccc2)N1")
1
>>> endpoint_value("CN(C)CCC[C@@]1(c2ccc(F)cc2)OCc2cc(C#N)ccc21")
0.96
>>> endpoint_value("CCCCC1=NC2(CCCC2)C(=O)N1Cc1ccc(-c2ccccc2-c2nn[nH]n2)cc1")
1.03

---

inhibition reference
experimental-system: 6-phosphogluconate dehydrogenase, decarboxylating (Homo sapiens) (UniProt P52209)
Sequence (P52209 whole entry, looked up): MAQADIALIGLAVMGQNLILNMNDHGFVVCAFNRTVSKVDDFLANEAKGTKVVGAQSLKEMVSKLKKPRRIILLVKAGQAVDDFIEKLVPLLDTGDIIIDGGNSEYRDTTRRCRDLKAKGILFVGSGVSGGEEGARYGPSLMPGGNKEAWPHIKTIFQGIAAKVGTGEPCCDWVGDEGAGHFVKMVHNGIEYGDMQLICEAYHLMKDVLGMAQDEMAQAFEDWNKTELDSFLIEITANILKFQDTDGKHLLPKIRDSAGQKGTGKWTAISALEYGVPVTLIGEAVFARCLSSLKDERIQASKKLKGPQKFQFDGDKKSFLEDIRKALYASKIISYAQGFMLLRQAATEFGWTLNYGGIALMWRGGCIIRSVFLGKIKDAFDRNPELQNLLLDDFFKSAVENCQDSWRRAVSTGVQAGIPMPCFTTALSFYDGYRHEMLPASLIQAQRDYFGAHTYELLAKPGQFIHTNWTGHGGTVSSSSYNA
test: 6PGD enzyme inhibitors, primary screen, biochemical, human, recombinant enzyme, NADPH absorbance (AID 1159550)
assay-conditions: recombinant 6PGD, NADPH absorbance 341 nm; at 10 µM; stronger effect = higher value
recorded-endpoint: inhibition (%)

>>> endpoint_value("O=C(O)c1cccnc1")
-13.9
>>> endpoint_value("O=c1[nH]cc(F)c(=O)[nH]1")
-1.95
>>> endpoint_value("COc1cc(NC(C)CCCN)c2ncccc2c1 (stereo unspecified)")
-0.957
>>> endpoint_value("CC(C)C(=O)Nc1ccc([N+](=O)[O-])c(C(F)(F)F)c1")
-5.89
>>> endpoint_value("COc1cc2nc(N(C)CCCNC(=O)C3CCCO3)nc(N)c2cc1OC (stereo unspecified)")
0.608
>>> endpoint_value("COc1c(N2CCNC(C)C2)c(F)cc2c(=O)c(C(=O)O)cn(C3CC3)c12 (stereo unspecified)")
-4.88
>>> endpoint_value("OC(Cn1cncn1)(Cn1cncn1)c1ccc(F)cc1F")
9
>>> endpoint_value("CC1=C(CC(=O)O)c2cc(F)ccc2/C1=C\\c1ccc(S(C)=O)cc1 (stereo unspecified)")
2.79
>>> endpoint_value("CC1(C)O[C@@H]2C[C@H]3[C@@H]4CCC5=CC(=O)C=C[C@]5(C)[C@@]4(F)[C@@H](O)C[C@]3(C)[C@]2(C(=O)CO)O1")
10.8
>>> endpoint_value("CC1=C(C(=O)O)N2C(=O)[C@@H](NC(=O)[C@H](N)c3ccccc3)[C@H]2SC1")
8.67
>>> endpoint_value("CCn1cc(C(=O)O)c(=O)c2cc(F)c(N3CCNCC3)cc21")
-0.111
>>> endpoint_value("CCN(CC)CC(=O)Nc1c(C)cccc1C")
-1.54
>>> endpoint_value("c1ccc([C@H]2CN3CCSC3=N2)cc1")
-3.99
>>> endpoint_value("C[C@]12C=CC(=O)C=C1CC[C@@H]1[C@@H]2[C@@H](O)C[C@@]2(C)[C@H]1CC[C@]2(O)C(=O)CO")
-5.44
>>> endpoint_value("CN[C@H]1CC[C@@H](c2ccc(Cl)c(Cl)c2)c2ccccc21")
-2.43
>>> endpoint_value("OCCN1CCN(CCCN2c3ccccc3Sc3ccc(Cl)cc32)CC1")
10.3
>>> endpoint_value("O=C1C(CCS(=O)c2ccccc2)C(=O)N(c2ccccc2)N1c1ccccc1 (stereo unspecified)")
-6.96
>>> endpoint_value("Nc1nc(N)c2nc(-c3ccccc3)c(N)nc2n1")
13.3
>>> endpoint_value("CC(=O)CC(c1ccccc1)c1c(O)c2ccccc2oc1=O (stereo unspecified)")
6.78
>>> endpoint_value("Clc1ccc2c(c1)C(N1CCNCC1)=Nc1ccccc1O2")
-21.3
>>> endpoint_value("NC(=O)N1c2ccccc2CC(=O)c2ccccc21")
8.8
>>> endpoint_value("NS(=O)(=O)c1cc2c(cc1Cl)NCNS2(=O)=O")
-1.9
>>> endpoint_value("CCCNCC(O)COc1ccccc1C(=O)CCc1ccccc1 (stereo unspecified)")
-5.6
>>> endpoint_value("O=S(=O)(O)CCS")
6.93
>>> endpoint_value("c1ccc(CC2=NCCN2)cc1")
-8.93
>>> endpoint_value("c1ccc2c(CC3=NCCN3)cccc2c1")
-9.35
>>> endpoint_value("O=C(C1CCCCC1)N1CC(=O)N2CCc3ccccc3C2C1 (stereo unspecified)")
-0.949
>>> endpoint_value("CC1=C(/C=C/C(C)=C/C=C/C(C)=C/C(=O)O)C(C)(C)CCC1")
-0.523
>>> endpoint_value("CC1COc2c(N3CCN(C)CC3)c(F)cc3c(=O)c(C(=O)O)cn1c23 (stereo unspecified)")
0.495
>>> endpoint_value("C#C[C@]1(O)CC[C@H]2[C@@H]3CCC4=Cc5oncc5C[C@]4(C)[C@H]3CC[C@@]21C")
14
>>> endpoint_value("CC(C)NCC(O)c1cc(O)cc(O)c1 (stereo unspecified)")
-6.42
>>> endpoint_value("CCCSc1ccc2nc(NC(=O)OC)[nH]c2c1")
-6.38
>>> endpoint_value("O[C@@H](c1cc(C(F)(F)F)nc2c(C(F)(F)F)cccc12)[C@H]1CCCCN1")
5.27
>>> endpoint_value("Cc1cn([C@H]2C[C@H](N=[N+]=[N-])[C@@H](CO)O2)c(=O)[nH]c1=O")
13.6
>>> endpoint_value("CCCCCCNC(=O)n1cc(F)c(=O)[nH]c1=O")
1.06
>>> endpoint_value("CN(C)c1ccc(O)c2c1C[C@H]1C[C@H]3[C@H](N(C)C)C(=O)C(C(N)=O)=C(O)[C@@]3(O)C(=O)C1=C2O")
-17.9
>>> endpoint_value("CCN(CCO)CCCC(C)Nc1ccnc2cc(Cl)ccc12 (stereo unspecified)")
13.2
>>> endpoint_value("CCN(CC)CCCC(C)Nc1ccnc2cc(Cl)ccc12 (stereo unspecified)")
7.49
>>> endpoint_value("COc1cc([C@@H]2c3cc4c(cc3[C@H](O)[C@H]3COC(=O)[C@H]23)OCO4)cc(OC)c1OC")
10.7
>>> endpoint_value("Cn1c(=O)c2[nH]cnc2n(C)c1=O")
4.58
>>> endpoint_value("CCOC(=O)N1CCC(=C2c3ccc(Cl)cc3CCc3cccnc32)CC1")
4.3
>>> endpoint_value("C/C=C/C(=O)N(CC)c1ccccc1C")
-11.5
>>> endpoint_value("CN(C)CCC[C@@]1(c2ccc(F)cc2)OCc2cc(C#N)ccc21")
8.36
>>> endpoint_value("Nc1nc2ncc(CNc3ccc(C(=O)N[C@@H](CCC(=O)O)C(=O)O)cc3)nc2c(=O)[nH]1")
-0.853
>>> endpoint_value("Fc1ccc([C@@H]2CCNC[C@H]2COc2ccc3c(c2)OCO3)cc1")
-2.44
>>> endpoint_value("CCN(CC)CCCC(C)Nc1c2ccc(Cl)cc2nc2ccc(OC)cc12 (stereo unspecified)")
1.31

---

test: hESC survival regulators, cell-based (AID 493140);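 further: cells exposed to compounds for four days before counting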
assay-conditions: human embryonic stem cell survival screen; stronger effect = higher value
Active and inactive are the calls of the source. The rule behind the calls is not given here.
recorded-endpoint: survival

>>> endpoint_value("CN1CCN(CCCN2c3ccccc3Sc3ccc(C(F)(F)F)cc32)CC1")
"1.83 (inactive)"
>>> endpoint_value("NC(=O)N1c2ccccc2C=Cc2ccccc21")
"26.6 (inactive)"
>>> endpoint_value("Cn1cnc([N+](=O)[O-])c1Sc1ncnc2nc[nH]c12")
"7.25 (inactive)"
>>> endpoint_value("CC(=O)OCC(=O)[C@@]12OC(C)(C)O[C@@H]1C[C@H]1[C@@H]3C[C@H](F)C4=CC(=O)C=C[C@]4(C)[C@@]3(F)[C@@H](O)C[C@@]12C")
"3.25 (inactive)"
>>> endpoint_value("CCn1cc(C(=O)O)c(=O)c2cc(F)c(N3CCNCC3)cc21")
"20.2 (inactive)"
>>> endpoint_value("CC12CC3CC(C)(C1)CC(N)(C3)C2")
"11.7 (inactive)"
>>> endpoint_value("CN(C)CCCN1c2ccccc2Sc2ccc(Cl)cc21")
"3.17 (inactive)"
>>> endpoint_value("CN(C)c1ccc(O)c2c1C[C@H]1C[C@H]3[C@H](N(C)C)C(=O)C(C(N)=O)=C(O)[C@@]3(O)C(=O)C1=C2O")
"9.58 (inactive)"
>>> endpoint_value("COc1ccc(OC)c(C(O)CNC(=O)CN)c1 (stereo not given)")
"18.8 (inactive)"
>>> endpoint_value("OCCN1CCN(CCCN2c3ccccc3Sc3ccc(C(F)(F)F)cc32)CC1")
"5.33 (inactive)"
